# test-method-notes: Pharmacokinetics of plasmatic oxytocin after intravenous, nasal spray or nebulizer administration
# condition-set: Condition IV; Sample 3; individual participants (Fig6A source data)
measured-metric: Concentration (plasma oxytocin) (ng/mL)

smiles-structure	measured-metric	data-value
CC[C@H](C)[C@@H]1NC(=O)[C@H](Cc2ccc(O)cc2)NC(=O)[C@@H](N)CSSC[C@@H](C(=O)N2CCC[C@H]2C(=O)N[C@@H](CC(C)C)C(=O)NCC(N)=O)NC(=O)[C@H](CC(N)=O)NC(=O)[C@H](CCC(N)=O)NC1=O	Concentration (plasma oxytocin)	0.0681
